The reported measurements were obtained from the nanobody polyreactivity screen of Harvey et al. (2022).

Procedure summary: yeast display, Sf9 membrane polyspecificity reagent, FACS + sequencing; frameworks hold sequencing errors
Property name: polyreactivity (PSR sort gate)

Here are 5 sequences together with their reported answers.
* QVQLVESGGGLVQAGGSLRLSCAASGFTFGSNTMGWYRQAPGKERELVAAITYTGGRTYYADSVKGRFTISRDNAKNTVYLQMNSLKPEDTAVYYCAAEYHFWSYSPGYDYWGQGTQVTVSS | high polyreactivity
* QVQHVESGGGLVQAVGSLRLSSAASGSTIRYYAMGWYRQAPGKERELVASISSSGGSTFYADSVKGRFTISRDNAKNSVYLQMNSLKPEDTAVYYCARRYHYNMDYWGQGTQVTVSS | high polyreactivity
* QVQIVESGGGLVQAGGSLRLSCAASGSTFSVYAMGWYRQAPGKDRELVVAIRSSGGSTYYAHSVKGRFTISRDNAKNTVYLQMNSLKPEDTAVYYCATRIIVGSYRYDYWGQATQVTVSS | low polyreactivity
* QVQLVESGGGLVQAGGSLRLSCAASGFTFGLYAMGWYRQAPGKERELVAAITSGGRTYYADSVKGRFTISRDNAKNTVYFQMNSLNPEDSAVYYCNADFFNAYLWYPGYESGFDYWGQCTQVTVSS | low polyreactivity
* QVQLVESGGGLVQAGGSLRLTCAASGRSFRRYAMGWYREAPGKERELVAAITWRGSSTYYADSVKGRFTISRDNAKNTVYLQMNSLKPEDTAVYYCAADIGYTYEYYYWGQGTQVTLSS | high polyreactivity

Summary for this sequence, `QVQLVESVGGLDQAGGSLRLSCAASGFTFDINTMGWYRQEPGKERELVAAITYSGGSTYYADSVKGRFTISRDNAKNTVYLQMNSLKPEDTAVYYCATTWYFVASWYVAIYDYWGQGTQVTVSS` : polyreactivity (PSR sort gate) is low polyreactivity

Summary for this sequence, `QVHLVESGGGLVQAGGSLRLSCAASGSIIGKYAMGWYRQAPGKERELVADITNSGGSTYYADSVKGRFTISRDNAKNTVYLQMNSLKPEDTAVYYCAADYLYPPYYEFYFWGQGTQVTVSS` : polyreactivity (PSR sort gate) is low polyreactivity

Summary for this sequence, `QVQLVESGGGLVQAGGSLRLSCAASGLIFFYLNDMGWYRQAPGKERELVATITSGTSTTYADSVKGRFTISRDNAKNTVYLQMNSLKPEDTAVYYCNATDVGIITVGYGHGGYYWGQGTQVTVSS` : polyreactivity (PSR sort gate) is low polyreactivity

Summary for this sequence, `QVQLVESGGGLVQAAGSLRLSCAASGFIFHYNAMGWYRKATGKERELDASITASASRTYYADSVKGRFTISLDNAKNTVYLQMNSLKPEDTAVYYCAKAIRITITRYRFGYWVQGTQVTVSS` : polyreactivity (PSR sort gate) is high polyreactivity

Summary for this sequence, `QVQLVESGGGLVQAGGSLRLTCAASGSIIVTYAMGWYRQAPGKERELVAVINSGTSTNYADSVKGRFTISRDNAKNTVYLQMNSLKPEDTAVYYCNADPLVYYYQDYRFCMGYWGQGTQVTVSS` : polyreactivity (PSR sort gate) is low polyreactivity

Summary for this sequence, `QVQLVESGGGLVQAGGSLRLSCAASGRIFTTYAMGWYRQAPGKERELVAAISRSGGSTYYADSVKGRFTISRDNAKNTVYLQMNSLKTEDTAVYYCAAVPTSNSFRSSFYYWGQGTQVTVSS` : polyreactivity (PSR sort gate) is high polyreactivity
